# Assay Summary: Thermodynamic aqueous solubility
# Format: physicochemical
# Condition Summary: phosphate-buffered saline; PBS 0.1 M, pH 7.4, 25 °C, 2 h

[
  {
    "Compound": "Cc1sc2c(c1C)C(c1ccc(Cl)cc1)=N[C@@H](CC(=O)NCC(=O)NCCCCCOc1cccc3c1C(=O)N(C1CCC(=O)NC1=O)C3=O)c1nnc(C)n1-2 (some centres unmarked) [Compound 29]",
    "solubility thermodynamic at 2 h [µM]": 15
  },
  {
    "Compound": "Cc1sc2c(c1C)C(c1ccc(Cl)cc1)=N[C@@H](CC(=O)N1CCN(CC(=O)NCCCCCOc3cccc4c3C(=O)N(C3CCC(=O)NC3=O)C4=O)CC1)c1nnc(C)n1-2 (some centres unmarked) [Compound 34]",
    "solubility thermodynamic at 2 h [µM]": 11
  },
  {
    "Compound": "Cc1sc2c(c1C)C(c1ccc(Cl)cc1)=N[C@@H](CC(=O)NCC(=O)NCCCCOc1cccc3c1C(=O)N(C1CCC(=O)NC1=O)C3=O)c1nnc(C)n1-2 (some centres unmarked) [Compound 28]",
    "solubility thermodynamic at 2 h [µM]": 17
  },
  {
    "Compound": "Cc1sc2c(c1C)C(c1ccc(Cl)cc1)=N[C@@H](CC(=O)NCC(=O)NCCCOc1cccc3c1C(=O)N(C1CCC(=O)NC1=O)C3=O)c1nnc(C)n1-2 (some centres unmarked) [Compound 27]",
    "solubility thermodynamic at 2 h [µM]": 48
  },
  {
    "Compound": "Cc1sc2c(c1C)C(c1ccc(Cl)cc1)=N[C@@H](CC(=O)OCC(=O)NCCCCOc1cccc3c1C(=O)N(C1CCC(=O)NC1=O)C3=O)c1nnc(C)n1-2 (some centres unmarked) [Compound 37]",
    "solubility thermodynamic at 2 h [µM]": 8
  }
]

###

Where a SMILES comes first, the peptide text is derived from it. [ ]: non-standard residue; d: D form. The star is where a group is joined. JQ1acid = Cc1sc2c(c1C)C(c1ccc(Cl)cc1)=N[C@@H](CC(=O)*)c1nnc(C)n1-2; NHBn(4-(4-Me-thiazol-5-yl)) = Cc1ncsc1-c1ccc(CN*)cc1; Hyp = O=C(O)[C@@H]1C[C@@H](O)CN1; Tle = CC(C)(C)[C@H](N)C(=O)O; Sar = CNCC(=O)O
The reader will find reported melting point values listed item by item below.
Quantity Measured: melting point

[
  {
    "Molecule": "Cc1sc2c(c1C)C(c1ccc(Cl)cc1)=N[C@@H](CC(=O)N(C)CC(=O)NCCCCCOc1cccc3c1C(=O)N(C1CCC(=O)NC1=O)C3=O)c1nnc(C)n1-2 (some centres unmarked)",
    "Quantity Measured": "melting point",
    "Result": "175.2 to 176.8 °C (dec.)"
  },
  {
    "Molecule": "Cc1sc2c(c1C)C(c1ccc(Cl)cc1)=N[C@@H](CC(=O)NCC(=O)NCCCCOc1cccc3c1C(=O)N(C1CCC(=O)NC1=O)C3=O)c1nnc(C)n1-2 (some centres unmarked)",
    "Quantity Measured": "melting point",
    "Result": "231.9 to 232.6 °C (dec.)"
  },
  {
    "Molecule": "Cc1ncsc1-c1ccc(CNC(=O)[C@@H]2C[C@@H](O)CN2C(=O)[C@@H](NC(=O)CNC(=O)CN(C)C(=O)C[C@@H]2N=C(c3ccc(Cl)cc3)c3c(sc(C)c3C)-n3c(C)nnc32)C(C)(C)C)cc1 [Compound 45] (JQ1acid-[Sar]G[Tle][Hyp]-{NHBn(4-(4-Me-thiazol-5-yl))})",
    "Quantity Measured": "melting point",
    "Result": "114.6 to 116 °C"
  },
  {
    "Molecule": "Cc1sc2c(c1C)C(c1ccc(Cl)cc1)=N[C@@H](CC(=O)N1CCN(CC(=O)NCCOCCOc3cccc4c3C(=O)N(C3CCC(=O)NC3=O)C4=O)CC1)c1nnc(C)n1-2 (some centres unmarked)",
    "Quantity Measured": "melting point",
    "Result": "173.8 to 174.5 °C (dec.)"
  },
  {
    "Molecule": "Cc1sc2c(c1C)C(c1ccc(Cl)cc1)=N[C@@H](CC(=O)NCC(=O)NCCOCCOCCOc1cccc3c1C(=O)N(C1CCC(=O)NC1=O)C3=O)c1nnc(C)n1-2 (some centres unmarked)",
    "Quantity Measured": "melting point",
    "Result": "201.2 to 202.9 °C (dec.)"
  }
]
